Origin of the recorded values: ChEMBL document CHEMBL5331131

# Tested on: dengue virus type 3
# Method Description: Antiviral activity against DENV-3 H87 infected in african green monkey Vero cells incubated for 24 hrs measured after 3 days post infection
# Type: functional, organism-based
Documented pEC50 across a set of molecules
// scale note: pEC50 = -log10(conc_M); give the bare number

Guide cases for pEC50, answers given:
Requested field: pEC50. Item: COc1cc(NC(C(=O)c2c[nH]c3cc(F)ccc23)c2ccc(F)cc2)cc(OCCO)c1 (stereo in doubt)
6.38

Requested field: pEC50. Item: COc1cc(NC(C(=O)c2c[nH]c3cc(F)ccc23)c2ccc(Cl)cc2OC)cc(OCCO)c1 (single isomer, unassigned; (+))
7.20

Requested field: pEC50. Item: COc1cc(NC(C(=O)c2c[nH]c3ccccc23)c2ccccc2)cc(OCCO)c1 (centres undefined)
6.00

Others:
Requested field: pEC50. Item: COc1cc(NC(C(=O)c2c[nH]c3cc(OC)c(C)cc23)c2ccc(Cl)cc2OC)cc(OCCO)c1 (single isomer, unassigned; (+))
7.59

----------
Documented CC50 across a set of compounds
# Method Description: Cytotoxicity against african green monkey Vero cells by ATPlite cell viability luminescence assay
# Format: toxicity, cell-based
# Experimental Setup: chlorocebus sabaeus
Lab book: enter the figure in µM, no units written.

Requested field: CC50. Item: COc1cc(NC(C(=O)c2c[nH]c3cc(F)ccc23)c2ccc(F)cc2OC)cc(OCCO)c1 (stereo not given)
8.4

Requested field: CC50. Item: COc1cc(NC(C(=O)c2c[nH]c3cc(F)ccc23)c2ccc(F)cc2OC(F)(F)F)cc(OCCO)c1 (stereo not given)
7.8

Requested field: CC50. Item: COc1cc(NC(C(=O)c2c[nH]c3c(C)c(F)ccc23)c2ccc(F)cc2OC)cc(OCCO)c1 (single isomer, unassigned; (+))
5.3

Requested field: CC50. Item: COc1cc(NC(C(=O)c2c[nH]c3cc(F)ccc23)c2ccc(F)cc2F)cc(OCCO)c1 (stereo not given)
13

Requested field: CC50. Item: COc1cc(NC(C(=O)c2c[nH]c3cc(F)ccc23)c2ccc(F)cc2)cc(OCCO)c1 (stereo in doubt)
13

Others:
Requested field: CC50. Item: COc1cc(NC(C(=O)c2c[nH]c3cc(F)ccc23)c2ccc(F)cc2OCCO)cc(OCCO)c1 (stereo not given)
14

Requested field: CC50. Item: COc1cc(NC(C(=O)c2c[nH]c3c(F)cc(C)cc23)c2ccc(F)cc2OC)cc(OCCO)c1 (single isomer, unassigned; (+))
5.5

Requested field: CC50. Item: COc1cc(NC(C(=O)c2c[nH]c3cc(OC)c(C)cc23)c2ccc(F)cc2OC)cc(OCCO)c1 (single isomer, unassigned; (+))
7.4

Requested field: CC50. Item: COc1cc(NC(C(=O)c2c[nH]c3cc(F)c(F)cc23)c2ccc(F)cc2OC)cc(OCCO)c1 (single isomer, unassigned; (+))
6.9

----------
# Method Description: Kinetic solubility of the compound in aqueous buffer at pH 7.4 measured after 4 hrs by UPLC/UV analysis
# Assay type: physicochemical
# Experimental Setup: read-out: Kinetic_solubility
Documented solubility kinetic at 4 h across a set of molecules

Guide cases for solubility kinetic at 4 h, answers given:
Requested field: solubility kinetic at 4 h. Item: COc1cc(NC(C(=O)c2c[nH]c3cc(F)ccc23)c2ccc(F)cc2OC)cc(OCCO)c1 (stereo unspecified)
18 µM

Requested field: solubility kinetic at 4 h. Item: COc1cc(NC(C(=O)c2c[nH]c3cc(OC)c(C)cc23)c2ccc(F)cc2OC)cc(OCCO)c1 (single isomer, unassigned; (+))
5 µM

Others:
Requested field: solubility kinetic at 4 h. Item: COc1cc(NC(C(=O)c2c[nH]c3c(C)c(Cl)ccc23)c2ccc(F)cc2OC)cc(OCCO)c1 (single isomer, unassigned; (+))
< 0.1 µM

Requested field: solubility kinetic at 4 h. Item: COc1cc(NC(C(=O)c2c[nH]c3cc(F)ccc23)c2ccc(Cl)cc2OC)cc(OCCO)c1 (single isomer, unassigned; (+))
1 µM

Requested field: solubility kinetic at 4 h. Item: COc1cc(NC(C(=O)c2c[nH]c3c(C)c(F)ccc23)c2ccc(F)cc2OC)cc(OCCO)c1 (single isomer, unassigned; (+))
2 µM

Requested field: solubility kinetic at 4 h. Item: COc1cc(NC(C(=O)c2c[nH]c3cc(OC)c(C)cc23)c2ccc(Cl)cc2OC)cc(OCCO)c1 (single isomer, unassigned; (+))
0.2 µM

----------
Documented bioavailability across a set of compounds
# Method Description: Oral bioavailability in CD-1 mouse at 3 mg/kg measured for 0.5 to 24 hrs by LC-MS/MS analysis
# Type: ADME, organism-based
# Experimental Setup: in vivo, time 0.5-24 hrs
Please provide the amount together with its unit, number first.

Requested field: bioavailability. Item: COc1cc(NC(C(=O)c2c[nH]c3cc(OC)c(C)cc23)c2ccc(Cl)cc2OC)cc(OCCO)c1 (single isomer, unassigned; (+))
54%

Others:
Requested field: bioavailability. Item: COc1cc(NC(C(=O)c2c[nH]c3cc(F)ccc23)c2ccc(Cl)cc2OC)cc(OCCO)c1 (single isomer, unassigned; (+))
40%

----------
Documented microsomal CLint across a set of molecules
# Method Description: Microsomal stability in rat liver microsomes assessed as intrinsic clearance preincubated for 5 mins followed by NADPH addition measured upto 60 mins by LC-MS/MS analysis
# Assay type: ADME, Microsome
# Experimental Setup: time < 65 min, read-out: CLH
Lab book: enter the figure in µL/min/mg, no units written.

Guide cases for microsomal CLint, answers given:
Requested field: microsomal CLint. Item: COc1cc(NC(C(=O)c2c[nH]c3cc(F)ccc23)c2ccc(F)cc2OC)cc(OCCO)c1 (stereo unspecified)
30

Requested field: microsomal CLint. Item: COc1cc(NC(C(=O)c2c[nH]c3cc(F)c(F)cc23)c2ccc(F)cc2OC)cc(OCCO)c1 (single isomer, unassigned; (+))
44

Requested field: microsomal CLint. Item: COc1cc(NC(C(=O)c2c[nH]c3c(F)cc(C)cc23)c2ccc(F)cc2OC)cc(OCCO)c1 (single isomer, unassigned; (+))
13

Requested field: microsomal CLint. Item: COc1cc(NC(C(=O)c2c[nH]c3c(C)c(OC)ccc23)c2ccc(F)cc2OC)cc(OCCO)c1 (single isomer, unassigned; (+))
17

Please turn your attention to the following entry.
Requested field: microsomal CLint. Item: COc1cc(NC(C(=O)c2c[nH]c3c(Cl)c(OC)ccc23)c2ccc(F)cc2OC)cc(OCCO)c1 (stereo unspecified)
37

----------
# Method Description: Clearance in CD-1 mouse at 2.5 mg/kg, iv measured for 0.12 to 24 hrs by LC-MS/MS analysis
# Format: ADME, organism-based
# Experimental Setup: in vivo, time 0.12-24 hrs
Documented clearance across a set of compounds
Lab book: enter the figure in mL/min/kg, no units written.

Requested field: clearance. Item: COc1cc(NC(C(=O)c2c[nH]c3cc(OC)c(C)cc23)c2ccc(Cl)cc2OC)cc(OCCO)c1 (single isomer, unassigned; (+))
6.3

Requested field: clearance. Item: COc1cc(NC(C(=O)c2c[nH]c3cc(F)ccc23)c2ccc(F)cc2)cc(OCCO)c1 (stereo in doubt)
37.1

Requested field: clearance. Item: COc1cc(NC(C(=O)c2c[nH]c3ccccc23)c2ccccc2)cc(OCCO)c1 (centres undefined)
54

Please turn your attention to the following entry.
Requested field: clearance. Item: COc1cc(NC(C(=O)c2c[nH]c3cc(F)ccc23)c2ccc(Cl)cc2OC)cc(OCCO)c1 (single isomer, unassigned; (+))
16.6

----------
# Method Description: Oral bioavailability in CD-1 mouse at 10 mg/kg measured for 0.5 to 24 hrs by LC-MS/MS analysis
# Format: ADME, organism-based
# Experimental Setup: in vivo, time 0.5-24 hrs
Observed Property: bioavailability (%)
Lab book: enter the figure in %, no units written.

Requested field: bioavailability. Item: COc1cc(NC(C(=O)c2c[nH]c3cc(OC)c(C)cc23)c2ccc(Cl)cc2OC)cc(OCCO)c1 (single isomer, unassigned; (+))
76

Others:
Requested field: bioavailability. Item: COc1cc(NC(C(=O)c2c[nH]c3cc(F)ccc23)c2ccc(Cl)cc2OC)cc(OCCO)c1 (single isomer, unassigned; (+))
52

----------
Documented AUC(0-t) across a set of compounds
# Method Description: AUC last in Sprague-Dawley rat at 10 mg/kg, po measured upto 24 to 48 hrs by LC-MS/MS analysis
# Assay type: ADME, organism-based
# Parameters: time upper 48 hrs, dose 10 mg/kg, time lower 24 hrs, route po
# Experimental Setup: in vivo
Lab book: enter the figure in ng·h/mL, no units written.

Guide cases for AUC(0-t), answers given:
Requested field: AUC(0-t). Item: COc1cc(NC(C(=O)c2c[nH]c3cc(F)ccc23)c2ccc(F)cc2OC)cc(OCCO)c1 (centres undefined)
1110

Requested field: AUC(0-t). Item: COc1cc(NC(C(=O)c2c[nH]c3cc(F)ccc23)c2ccc(Cl)cc2OC)cc(OCCO)c1 (single isomer, unassigned; (+))
2430

Requested field: AUC(0-t). Item: COc1cc(NC(C(=O)c2c[nH]c3cc(OC)c(C)cc23)c2ccc(F)cc2OC)cc(OCCO)c1 (single isomer, unassigned; (+))
4660

Please turn your attention to the following entry.
Requested field: AUC(0-t). Item: COc1cc(NC(C(=O)c2c[nH]c3cc(OC)c(C)cc23)c2ccc(Cl)cc2OC)cc(OCCO)c1 (single isomer, unassigned; (+))
8390
